Data provenance: patent US20170253562A1

- tested_target: recombinant, human, C-terminally-His tagged NAMPT (Homo sapiens, UniProt P43490)
- Sequence (P43490 whole entry): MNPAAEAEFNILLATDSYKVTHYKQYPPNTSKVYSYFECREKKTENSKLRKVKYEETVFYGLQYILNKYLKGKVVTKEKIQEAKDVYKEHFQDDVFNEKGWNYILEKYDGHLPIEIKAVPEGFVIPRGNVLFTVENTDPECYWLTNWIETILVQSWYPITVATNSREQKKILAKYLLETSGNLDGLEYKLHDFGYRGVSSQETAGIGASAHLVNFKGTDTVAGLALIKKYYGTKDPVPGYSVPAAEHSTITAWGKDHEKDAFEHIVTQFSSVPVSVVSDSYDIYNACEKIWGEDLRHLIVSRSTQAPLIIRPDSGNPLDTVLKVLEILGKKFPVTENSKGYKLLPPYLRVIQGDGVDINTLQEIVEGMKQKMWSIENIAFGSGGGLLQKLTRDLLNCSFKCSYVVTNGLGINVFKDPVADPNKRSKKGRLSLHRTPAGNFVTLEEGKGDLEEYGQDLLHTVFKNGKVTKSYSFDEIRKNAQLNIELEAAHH
- experiment: Time-Resolved Fluorescence Resonance Energy Transfer (TR-FRET) binding assay of NAMPT
- settings: 6.8 nM NAMPT, 200 nM probe (Oregon Green 488-conjugated APO866), 2-3 hours
pIC50: −log10 of the molar value.
Use 1 (yes) when the recorded pIC50 is no lower than 6; use 0 (no) when it is lower.

Q: # check: pIC50 of O=C(NCCN1CCCCCC1)c1ccc(NC(=O)N2Cc3ccccc3C2)cc1 is greater than or equal to 6
Result: 1 (yes)

Q: Given O=C(Nc1ccc(C(=O)N2CC3(CCCO3)C2)nn1)N1Cc2ccccc2C1 , state whether its pIC50 is at least 6.
Result: 1 (yes)

Q: Given the entry O=C(NCc1nnn2c1CNCCC2)c1ccc(NC(=O)N2Cc3ccccc3C2)nn1 , answer whether its pIC50 meets or surpasses 6.
Result: 0 (no)

Q: Is it the case that O=C(Nc1ccc(C(=O)N2CCC3(CC2)COC3)nn1)N1Cc2ccccc2C1 has pIC50 reaching or exceeding 6?
Result: 1 (yes)

Q: # bool: pIC50 of O=C(Nc1ccc(C(=O)N2CCC3(CCCO3)C2)nn1)N1Cc2ccccc2C1 (centres unmarked) >= 6
Result: 1 (yes)

Q: Determine whether measured pIC50 meets or exceeds 6 for O=C(Nc1ccc(C(=O)N2CC3COCC3C2)nn1)N1Cc2ccccc2C1 (centres unmarked)
Result: 1 (yes)

Q: Has O=C(Nc1ccc(C(=O)N2CC3(CNC3)C2)nn1)N1Cc2ccccc2C1 a recorded pIC50 greater than or equal to 6?
Result: 0 (no)

Q: Does pIC50 meet or surpass 6 for O=C(NCC1COC2(CCNCC2)C1)c1ccc(NC(=O)N2Cc3ccccc3C2)nn1 (centres unmarked) ?
Result: 1 (yes)

Q: Textbook exercise: given the entry O=C(Nc1ccc(C(=O)N2CC3(CCCNC3)C2)nn1)N1Cc2ccccc2C1 , state whether its pIC50 is greater than or equal to 6.
Result: 0 (no)

Q: Entry O=C(NCC1CC2(CCNCC2)C1)c1ccc(NC(=O)N2Cc3ccccc3C2)nn1 : is its pIC50 no less than 6?
Result: 1 (yes)

Q: API: above_or_equal(metric=pIC50, cutoff=6) for item O=C(Nc1ccc(C(=O)N2CC3CCOC3C2)nn1)N1Cc2ccccc2C1 (centres unmarked)
Result: 1 (yes)

----------
Would you mind telling me the reported pIC50 of each entry?
- tested_target: recombinant, human, C-terminally-His tagged NAMPT (Homo sapiens, UniProt P43490)
- experiment: Time-Resolved Fluorescence Resonance Energy Transfer (TR-FRET) binding assay of NAMPT
- settings: 6.8 nM NAMPT, 200 nM probe (Oregon Green 488-conjugated APO866), 2-3 hours
- Protocol: Time-Resolved Fluorescence Resonance Energy Transfer (TR-FRET) Binding Assay of NAMPT Plates were read with Envision (Laser Lantha low volume protocol) after 2 to 3 hours.
Formally, pIC50 is defined as -log10 of the concentration c, with c in mol/L.

Q: Bench note: what pIC50 did O=C(Nc1ccc(C(=O)N2CCC3(CNCCC3(F)F)C2)nn1)N1Cc2ccccc2C1 (centres unmarked) show?
Result: 6.94

Q: Requested field: pIC50. Item: O=C(Nc1ccc(C(=O)N2CCC(C3CNC3)C2)nn1)N1Cc2ccccc2C1 (centres unmarked)
Result: 6.10

Q: Given O=C(Nc1ccc(C(=O)N2CC3(COC3)C2)nn1)N1Cc2ccccc2C1 , state its recorded pIC50.
Result: 6.20

Q: Consider the molecule shown here: O=C(Nc1ccc(C(=O)N2CCC3(CC2)CNC3)nn1)N1Cc2ccccc2C1 What is its recorded pIC50?
Result: 6.66

Q: Please report the recorded pIC50 for O=C(Nc1ccc(C(=O)N2CC3(CCOCC3)C2)nn1)N1Cc2ccccc2C1 .
Result: 6.41

Q: Look up pIC50 for this molecule: O=C(NCC1CC12CCNCC2)c1ccc(NC(=O)N2Cc3ccccc3C2)nn1 (centres unmarked)
Result: 6.19

Q: I am curious: what pIC50 value has been reported for O=C(Nc1ccc(C(=O)N2CCC3(CCNCC3)C2)nn1)N1Cc2ccccc2C1 ?
Result: 6.39

Q: Need pIC50, item O=C(Nc1ccc(C(=O)N2CCCC3(COC3)C2)nn1)N1Cc2ccccc2C1
Result: 6.05

Q: Name the reported pIC50 value associated with the molecule O=C(Nc1ccc(C(=O)N2CCCC3(CCNC3)C2)nn1)N1Cc2ccccc2C1 (centres unmarked)
Result: 5.90

Q: What value of measured pIC50 is listed for O=C(NC1[C@H]2CNC[C@@H]12)c1ccc(NC(=O)N2Cc3ccccc3C2)nn1 (some centres unmarked) ?
Result: 5.54

Q: Bench note: what pIC50 did O=C(NCc1nc2c([nH]1)CNCC2)c1ccc(NC(=O)N2Cc3ccccc3C2)nn1 show?
Result: 6.03

Q: Any idea what pIC50 was measured for O=C(NCC1(F)CCNCC1)c1ccc(NC(=O)N2Cc3ccccc3C2)nn1 ?
Result: 5.54

Q: Would you kindly share the measured pIC50 for O=C(Nc1ccc(C(=O)N2CCC3(CNC3)C2)nn1)N1Cc2ccccc2C1 ?
Result: 5.14

Q: For the molecule shown here, O=C(Nc1ccc(C(=O)N2CC3(CCCCO3)C2)nn1)N1Cc2ccccc2C1 , give the reported pIC50.
Result: 6.58

Q: Dear colleague, I am looking for the recorded pIC50 of the following molecule: O=C(Nc1ccc(C(=O)N2CCOC3(CCOC3)C2)nn1)N1Cc2ccccc2C1 (centres unmarked)
Result: 5.69

Q: I have this molecule here, O=C(NCc1nnc2n1CCCNC2)c1ccc(NC(=O)N2Cc3ccccc3C2)nn1 , and I need its recorded pIC50.
Result: 5.49

Q: Request the reported pIC50 associated with O=C(NCC1COC2(CCNCC2)C1)c1ccc(NC(=O)N2Cc3ccccc3C2)cc1 (centres unmarked)
Result: 8.13

Q: Item under review: O=C(Nc1ccc(C(=O)N2CCC3OCCC3C2)nn1)N1Cc2ccccc2C1 (centres unmarked) . Reported pIC50?
Result: 6.02

Q: Tell me the measured pIC50 of O=C(Nc1ccc(C(=O)N2CCC3(CCNC3)CC2)nn1)N1Cc2ccccc2C1 , please.
Result: 6.85

Q: Item O=C(NCC1CCC2(CCNCC2)O1)c1ccc(NC(=O)N2Cc3ccccc3C2)nn1 (centres unmarked) has what recorded pIC50?
Result: 6.11

Q: So what's the measured pIC50 for this one? O=C(NCCC1CCCCO1)c1ccc(NC(=O)N2Cc3ccccc3C2)cc1 (centres unmarked)
Result: 8.39

Q: Item O=C(Nc1ccc(C(=O)N2CCC3(CCNCC3)C2C(F)(F)F)nn1)N1Cc2ccccc2C1 (centres unmarked) has what recorded pIC50?
Result: 5.23

Q: Given the entry N#CC1COC2(CCN(C(=O)c3ccc(NC(=O)N4Cc5ccccc5C4)nn3)CC2)C1 (centres unmarked) , report its measured pIC50.
Result: 6.80

Q: Look up pIC50: O=C(NCC1CCC2(CCNCC2)CO1)c1ccc(NC(=O)N2Cc3ccccc3C2)nn1 (centres unmarked)
Result: 6.60

Q: Any idea what pIC50 was measured for O=C(NC[C@H]1CC2CNCCN2C1)c1ccc(NC(=O)N2Cc3ccccc3C2)nn1 (some centres unmarked) ?
Result: 6.22

Q: Can you look up the measured pIC50 of O=C(Nc1ccc(C(=O)N2CCC3(CNCCC3F)C2)nn1)N1Cc2ccccc2C1 (centres unmarked) for me?
Result: 6.39

Q: Query (molecule): O=C(NC1CCC12CNC2)c1ccc(NC(=O)N2Cc3ccccc3C2)nn1 (centres unmarked) ; field requested: pIC50
Result: 5.54

Q: Could you share which pIC50 value was measured for O=C(Nc1ccc(C(=O)N2CC3(CCNCC3)C2)nn1)N1Cc2ccccc2C1 ?
Result: 6.34

Q: Name the reported pIC50 value associated with the molecule O=C(Nc1ccc(C(=O)N2CCC3(CCNCC3)CC2)nn1)N1Cc2ccccc2C1
Result: 7.00

Q: Requested field: pIC50. Item: CC1(CNC(=O)c2ccc(NC(=O)N3Cc4ccccc4C3)cc2)CCCO1 (centres unmarked)
Result: 8.16

Q: What does the record list as pIC50 for O=C(NCc1nnc2n1CCNC2)c1ccc(NC(=O)N2Cc3ccccc3C2)nn1 ?
Result: 5.71

Q: Requested read-out: pIC50. Entry: O=C(NC1COC2(CCNCC2)C1)c1ccc(NC(=O)N2Cc3ccccc3C2)nn1 (centres unmarked)
Result: 6.06

Q: What does the data say about its pIC50? Entry: O=C(NCC1CC2(CNC2)CO1)c1ccc(NC(=O)N2Cc3ccccc3C2)nn1 (centres unmarked)
Result: 5.67

Q: Which pIC50 value belongs to O=C(Nc1ccc(C(=O)N2CCC3(CCOC3)C2)nn1)N1Cc2ccccc2C1 (centres unmarked) ?
Result: 6.24

Q: Quick one: pIC50 for O=C(NCCN1CCNC1=O)c1ccc(NC(=O)N2Cc3ccccc3C2)cc1 ?
Result: 7.49
